# DC50 annotations
# ASSAY TARGET: AR protein in VCaP cells (Homo sapiens)
# Construct: endogenous in cells; host or cells: VCaP cells
# Sequence (P10275 whole entry): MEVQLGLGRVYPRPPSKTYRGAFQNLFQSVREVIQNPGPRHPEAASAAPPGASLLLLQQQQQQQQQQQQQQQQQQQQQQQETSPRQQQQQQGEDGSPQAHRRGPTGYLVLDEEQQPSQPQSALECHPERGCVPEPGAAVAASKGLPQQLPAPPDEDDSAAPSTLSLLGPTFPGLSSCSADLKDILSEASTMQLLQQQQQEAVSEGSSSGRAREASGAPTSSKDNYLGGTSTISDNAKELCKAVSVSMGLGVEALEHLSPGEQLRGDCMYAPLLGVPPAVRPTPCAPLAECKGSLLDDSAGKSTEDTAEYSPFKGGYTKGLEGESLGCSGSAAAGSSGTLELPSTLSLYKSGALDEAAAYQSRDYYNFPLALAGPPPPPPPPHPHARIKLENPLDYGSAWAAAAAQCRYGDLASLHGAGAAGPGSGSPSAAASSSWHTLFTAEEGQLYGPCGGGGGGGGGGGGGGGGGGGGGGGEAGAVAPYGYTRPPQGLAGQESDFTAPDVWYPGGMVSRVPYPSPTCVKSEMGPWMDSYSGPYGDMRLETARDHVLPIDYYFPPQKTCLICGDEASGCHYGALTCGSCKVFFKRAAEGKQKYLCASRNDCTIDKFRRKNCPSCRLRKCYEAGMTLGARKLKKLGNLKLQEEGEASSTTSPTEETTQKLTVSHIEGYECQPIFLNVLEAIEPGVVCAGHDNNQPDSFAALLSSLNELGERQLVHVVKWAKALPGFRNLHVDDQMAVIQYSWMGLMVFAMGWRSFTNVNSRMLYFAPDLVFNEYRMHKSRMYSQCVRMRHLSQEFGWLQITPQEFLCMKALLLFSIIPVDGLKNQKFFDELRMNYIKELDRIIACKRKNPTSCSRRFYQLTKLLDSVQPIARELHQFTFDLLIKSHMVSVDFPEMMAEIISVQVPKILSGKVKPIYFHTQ
# METHOD DESCRIPTION: VCAP AR Degradation Assay (AR ELISA, 24 h)
# Assay type: cell-based
# SETUP CONDITIONS: concentration of compound when AR level = 50% of DMSO control, read-out: DC50
ENDPOINT NAME: DC50

• CCc1cc(N2C(=S)N(c3cnc(C#N)c(C(F)(F)F)c3)C(=O)C2(C)C)ccc1OCC1CCN(CC(=O)Nc2cc(Cl)cc(NC3CCC(=O)NC3=O)c2)CC1 (centres unmarked) = < 100 nM
• CCc1cc(N2C(=S)N(c3ccc(C#N)c(C(F)(F)F)c3)C(=O)C2(C)C)ccc1OCCC1CCN(CC(=O)Nc2cc(F)cc(NC3CCC(=O)NC3=O)c2)CC1 (centres unmarked) = 100 to 500 nM
• CC(C)c1cc(N2C(=S)N(c3ccc(C#N)c(C(F)(F)F)c3)C(=O)C2(C)C)ccc1OCC[C@@H]1CCN(CC(=O)Nc2cccc(NC3CCC(=O)NC3=O)c2)[C@H](C)C1 (some centres unmarked) = 500 to 1000 nM
• CCc1cc(N2C(=S)N(c3ccc(C#N)c(C(F)(F)F)c3)C(=O)C23CCC3)ccc1OCCC1CCN([C@H](C)C(=O)Nc2cc(Cl)cc(NC3CCC(=O)NC3=O)c2)CC1 (some centres unmarked) = 100 to 500 nM
• CCc1cc(N2C(=S)N(c3ccc(C#N)c(C(F)(F)F)c3)C(=O)C2(C)C)ccc1OCCC1(F)CCN(CC(=O)Nc2cc(Cl)cc(NC3CCC(=O)NC3=O)c2)CC1 (centres unmarked) = < 100 nM

###

# ASSAY TARGET: AR protein in VCaP cells (Homo sapiens)
# Construct: endogenous in cells; host or cells: VCaP cells
# METHOD DESCRIPTION: VCAP AR Degradation Assay (AR ELISA, 24 h)
# Assay type: cell-based
# SETUP CONDITIONS: concentration of compound when AR level = 50% of DMSO control, read-out: DC50
# DC50 annotations
ENDPOINT NAME: DC50

* CCc1cc(N2C(=S)N(c3ccc(C#N)c(C(F)(F)F)c3)C(=O)C2(C)C)ccc1OC1CCN(CC(=O)Nc2cc(Cl)cc(NC3CCC(=O)NC3=O)c2)CC1 (centres unmarked) [Cmpd 49] | 0.1 to 0.5 µM
* C[C@H](C(=O)Nc1cccc(NC2CCC(=O)NC2=O)c1)N1CCC(CCOc2ccc(N3C(=S)N(c4cnc(C#N)c(C(F)(F)F)c4)C(=O)C3(C)C)cc2CCF)CC1 (some centres unmarked) [Cmpd 72] | < 0.1 µM
* CC1(C)C(=O)N(c2ccc(C#N)c(C(F)(F)F)c2)C(=S)N1c1ccc(OCCC2CCN(CC(=O)Nc3cc(Cl)cc(NC4CCC(=O)NC4=O)c3)CC2)c(CCF)c1 (centres unmarked) [Cmpd 33] | < 0.1 µM
* C[C@@H](C(=O)Nc1cccc(NC2CCC(=O)NC2=O)c1)N1CCC(CCOc2ccc(N3C(=S)N(c4cnc(C#N)c(C(F)(F)F)c4)C(=O)C3(C)C)cc2CCF)CC1 (some centres unmarked) [Cmpd 73] | < 0.1 µM
* CCc1cc(N2C(=S)N(c3cnc(C#N)c(C(F)(F)F)c3)C(=O)C2(C)C)ccc1OCCC1CCN(CC(=O)Nc2cc(F)cc(NC3CCC(=O)NC3=O)c2)CC1 (centres unmarked) [Cmpd 16] | < 0.1 µM

###

# ASSAY TARGET: AR protein in VCaP cells (Homo sapiens)
# Construct: endogenous in cells; host or cells: VCaP cells
# METHOD DESCRIPTION: VCAP AR Degradation Assay (AR ELISA, 24 h)
# Format: cell-based
# SETUP CONDITIONS: concentration of compound when AR level = 50% of DMSO control, read-out: DC50
# From the text: VCAP AR Degradation Assay. Test compounds were pre-dispensed into a Corning CellBind 96-well clear bottom plate (Cat #3300) using an acoustic dispenser to make a 10-point concentration series at 1:3 dilution for each compound. The final top concentration of each compound was […]. DMSO at a final concentration of 0.1% was used as a control. […] AR levels in compound-treated wells were normalized to that of DMSO control and expressed as percent of control (PoC) (y). […]
ENDPOINT NAME: DC50

- CCc1cc(N2C(=S)N(c3cnc(C#N)c(C(F)(F)F)c3)C(=O)C2(C)C)ccc1OCC[C@@H]1CCN(CC(=O)Nc2cccc(NC3CCC(=O)NC3=O)c2)[C@H](C)C1 (stereo partly drawn): < 100 nM
- CCc1cc(N2C(=S)N(c3cnc(C#N)c(C(F)(F)F)c3)C(=O)C2(C)C)ccc1OC1C[C@H]2CC[C@@H](C1)N2CC(=O)Nc1cccc(NC2CCC(=O)NC2=O)c1 (stereo partly drawn): 500 to 1000 nM
- CCc1cc(N2C(=S)N(c3ccc(C#N)c(C(F)(F)F)c3)C(=O)C2(C)C)ccc1OCCC1(F)CCN(CC(=O)Nc2cccc(NC3CCC(=O)NC3=O)c2)CC1 (stereo not drawn): < 100 nM

###

# ASSAY TARGET: AR protein in VCaP cells (Homo sapiens)
# Construct: endogenous in cells; host or cells: VCaP cells
# METHOD DESCRIPTION: VCAP AR Degradation Assay (AR ELISA, 24 h)
# Type: cell-based
# SETUP CONDITIONS: AR degradation efficiency
ENDPOINT NAME: Y (lowest measured AR level normalized to DMSO control)

- CCc1cc(N2C(=S)N(c3cnc(C#N)c(C(F)(F)F)c3)C(=O)C23CCC3)ccc1OCCC1CCN(CC(=O)Nc2cccc(NC3CCC(=O)NC3=O)c2)CC1 (stereo not drawn) [Cmpd 29]: * (0<Y<=25%)
- CC1(C)C(=O)N(c2ccc(C#N)c(C(F)(F)F)c2)C(=S)N1c1ccc(OCCC2CCN(CC(=O)Nc3cc(Cl)cc(NC4CCC(=O)NC4=O)c3)CC2)c(F)c1 (stereo not drawn) [Cmpd 10]: ** (25%<Y<=35%)
- CCc1cc(N2C(=S)N(c3cnc(C#N)c(C(F)(F)F)c3)C(=O)C23CCC3)ccc1OCCC1CCN([C@@H](C)C(=O)Nc2cc(Cl)cc(NC3CCC(=O)NC3=O)c2)CC1 (stereo partly drawn) [Cmpd 35]: * (0<Y<=25%)
- CCc1cc(N2C(=S)N(c3cnc(C#N)c(C(F)(F)F)c3)C(=O)C2(C)C)ccc1OCC[C@H]1CCN(CC(=O)Nc2cc(NC3CCC(=O)NC3=O)ccc2F)[C@H](C)C1 (stereo partly drawn) [Cmpd 77]: * (0<Y<=25%)
- CCc1cc(N2C(=S)N(c3cnc(C#N)c(C(F)(F)F)c3)C(=O)C2(C)C)ccc1OCCC1CCN(CC(=O)Nc2cc(NC3CCC(=O)NC3=O)ccc2F)CC1 (stereo not drawn) [Cmpd 15]: * (0<Y<=25%)
- CCc1cc(N2C(=S)N(c3cnc(C#N)c(C(F)(F)F)c3)C(=O)C23CCC3)ccc1OCCC1CCN([C@@H](C)C(=O)Nc2cc(NC3CCC(=O)NC3=O)ccc2F)CC1 (stereo partly drawn) [Cmpd 85]: * (0<Y<=25%)
- CC1(C)C(=O)N(c2cnc(C#N)c(C(F)(F)F)c2)C(=S)N1c1ccc(OCCC2CCN(CC(=O)Nc3cccc(NC4CCC(=O)NC4=O)c3)CC2)c(Cl)c1 (stereo not drawn) [Cmpd 5]: * (0<Y<=25%)
- CCc1cc(N2C(=S)N(c3cnc(C#N)c(C(F)(F)F)c3)C(=O)C23CCC3)ccc1OCC[C@@H]1C[C@H]2CC[C@@H](C1)N2CC(=O)Nc1cccc(NC2CCC(=O)NC2=O)c1 (stereo partly drawn) [Cmpd 68]: * (0<Y<=25%)
- CCc1cc(N2C(=S)N(c3cnc(C#N)c(C(F)(F)F)c3)C(=O)C2(C)C)ccc1OCC[C@@H]1C[C@H]2CC[C@@H](C1)N2CC(=O)Nc1cccc(NC2CCC(=O)NC2=O)c1 (stereo partly drawn) [Cmpd 66]: * (0<Y<=25%)
- CC1(C)C(=O)N(c2cnc(C#N)c(C(F)(F)F)c2)C(=S)N1c1ccc(OCC2CCN(CC(=O)Nc3cccc(NC4CCC(=O)NC4=O)c3)CC2)cc1 (stereo not drawn) [Cmpd 6]: ** (25%<Y<=35%)
- CCc1cc(N2C(=S)N(c3cnc(C#N)c(C(F)(F)F)c3)C(=O)C23CCC3)ccc1OCCC1CCN([C@H](C)C(=O)Nc2cc(Cl)cc(NC3CCC(=O)NC3=O)c2)CC1 (stereo partly drawn) [Cmpd 36]: * (0<Y<=25%)
- CCc1cc(N2C(=S)N(c3cnc(C#N)c(C(F)(F)F)c3)C(=O)C23CCC3)ccc1OCCC1CCN([C@H](C)C(=O)Nc2cc(NC3CCC(=O)NC3=O)ccc2F)CC1 (stereo partly drawn) [Cmpd 86]: * (0<Y<=25%)
- CCc1cc(N2C(=S)N(c3cnc(C#N)c(C(F)(F)F)c3)C(=O)C23CCC3)ccc1OCCC1CCN(CC(=O)Nc2cc(NC3CCC(=O)NC3=O)ccc2F)CC1 (stereo not drawn) [Cmpd 56]: * (0<Y<=25%)
- CCc1cc(N2C(=S)N(c3ccc(C#N)c(C(F)(F)F)c3)C(=O)C23CCC3)ccc1OCCC1CCN([C@H](C)C(=O)Nc2cccc(NC3CCC(=O)NC3=O)c2)CC1 (stereo partly drawn) [Cmpd 60]: ** (25%<Y<=35%)
- CCc1cc(N2C(=S)N(c3cnc(C#N)c(C(F)(F)F)c3)C(=O)C2(C)C)ccc1OCCC1CCN(CC(=O)Nc2cccc(NC3CCC(=O)NC3=O)c2)CC1 (stereo not drawn) [Cmpd 12]: * (0<Y<=25%)
- CCc1cc(N2C(=S)N(c3cnc(C#N)c(C(F)(F)F)c3)C(=O)C2(C)C)ccc1OCCC1(F)CCN(CC(=O)Nc2cccc(NC3CCC(=O)NC3=O)c2)CC1 (stereo not drawn) [Cmpd 89]: * (0<Y<=25%)
- CC(F)(F)c1cc(N2C(=S)N(c3cnc(C#N)c(C(F)(F)F)c3)C(=O)C2(C)C)ccc1OCCC1CCN(CC(=O)Nc2cc(Cl)cc(NC3CCC(=O)NC3=O)c2)CC1 (stereo not drawn) [Cmpd 24]: * (0<Y<=25%)
- CCc1cc(N2C(=S)N(c3ccc(C#N)c(C(F)(F)F)c3)C(=O)C2(C)C)ccc1OCC[C@H]1CCN(CC(=O)Nc2cc(NC3CCC(=O)NC3=O)ccc2F)[C@H](C)C1 (stereo partly drawn) [Cmpd 82]: ** (25%<Y<=35%)
- CC1(C)C(=O)N(c2ccc(C#N)c(C(F)(F)F)c2)C(=S)N1c1ccc(OCCC2CCN(CC(=O)Nc3cccc(NC4CCC(=O)NC4=O)c3)CC2)c(Cl)c1 (stereo not drawn) [Cmpd 4]: ** (25%<Y<=35%)
- CCc1cc(N2C(=S)N(c3cnc(C#N)c(C(F)(F)F)c3)C(=O)C2(C)C)ccc1OCCC1CCN(CC(=O)Nc2cc(NC3CCC(=O)NC3=O)ccc2Cl)CC1 (stereo not drawn) [Cmpd 14]: * (0<Y<=25%)
